# TEST_DESCRIPTION: Dissociation constant, pKa of the compound by UV-spectroscopy
# Assay type: physicochemical
Parameter: pKa. Scope: all listed entries.
# print the numeric value only

Below: 5 molecules and their reported pKa.
Cc1ncc([N+](=O)[O-])n1CC(O)Cn1cc(C(=O)O)c(=O)c2cccc(F)c21 (stereo not drawn): 5.12
Cc1ncc([N+](=O)[O-])n1CC(O)Cn1cc(C(=O)O)c(=O)c2cc(F)c(Cl)cc21 (stereo not drawn): 5.14
COc1ccc2c(c1)c(=O)c(C(=O)O)cn2CC(O)Cn1c([N+](=O)[O-])cnc1C (stereo not drawn): 5.72
Cc1ccc2c(c1)c(=O)c(C(=O)O)cn2CC(O)Cn1c([N+](=O)[O-])cnc1C (stereo not drawn): 6.43
Cc1ncc([N+](=O)[O-])n1CC(O)Cn1cc(C(=O)O)c(=O)c2ccc(C(F)(F)F)cc21 (stereo not drawn): 5.6

Ask: pKa lookup needed for Cc1ncc([N+](=O)[O-])n1CC(O)Cn1cc(C(=O)O)c(=O)c2cc(F)ccc21 (stereo not drawn) , thanks.
Reply: 5.18

Ask: pKa lookup needed for Cc1ncc([N+](=O)[O-])n1CC(O)Cn1cc(C(=O)O)c(=O)c2cc(Cl)cc(Cl)c21 (stereo not drawn) , thanks.
Reply: 5.26

Ask: pKa lookup needed for Cc1ncc([N+](=O)[O-])n1CC(O)Cn1cc(C(=O)O)c(=O)c2cc(F)cc(F)c21 (stereo not drawn) , thanks.
Reply: 5.33

Values compiled from ChEMBL document CHEMBL3351780.
